Target: DLK (Homo sapiens (Human), UniProt Q12852)
Sequence (Q12852 1-520): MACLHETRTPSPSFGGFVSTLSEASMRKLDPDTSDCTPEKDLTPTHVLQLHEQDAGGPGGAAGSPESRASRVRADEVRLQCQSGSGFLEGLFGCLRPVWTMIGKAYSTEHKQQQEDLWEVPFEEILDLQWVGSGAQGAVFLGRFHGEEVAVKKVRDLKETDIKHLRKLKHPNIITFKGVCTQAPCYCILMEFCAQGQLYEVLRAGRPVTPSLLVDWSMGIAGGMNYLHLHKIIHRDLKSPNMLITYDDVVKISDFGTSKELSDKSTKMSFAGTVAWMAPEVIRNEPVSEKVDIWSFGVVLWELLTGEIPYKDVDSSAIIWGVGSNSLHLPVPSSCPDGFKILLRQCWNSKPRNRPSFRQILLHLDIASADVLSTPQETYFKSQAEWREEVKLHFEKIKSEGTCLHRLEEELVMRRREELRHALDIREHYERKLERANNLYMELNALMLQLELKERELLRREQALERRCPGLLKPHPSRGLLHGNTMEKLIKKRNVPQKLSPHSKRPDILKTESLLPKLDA
Assay: DLK TR-FRET Inhibition Assay
Assay type: biochemical
Details: N-terminally GST-tagged DLK (catalytic domain amino acid 1-520), MKK4 K131M substrate, 30 μM ATP; read-out: DLK HTRF Ki
observable: Ki (µM)
Numbers only here, please. The scale is µM.

C[C@]1(C2CC2)OCCn2c1nc1c(C3CC3)nc(-c3cnc(N)nc3)nc12 (single isomer, unassigned) [Example 105]
0.211
CC1(C)OCCn2c1nc1c(N3CC4CC3C[C@H]4F)nc(-c3cnc(N)nc3)nc12 (single isomer, unassigned) [Example 142]
0.216
CC1(C)OCCn2c1nc1c(N3CCC4(COC4)C3)nc(-c3cnc(N)nc3)nc12 [Example 8]
0.469

Proceed to the following item.
Which Ki reading was recorded for the molecule CC1(C)OCCn2c1nc1c(N3CC4CC3CC4(F)F)nc(-c3cnc(N)nc3)nc12 (stereo not shown) [Example 11] ?
0.262
